- target: recombinant human D1 receptors (Homo sapiens, UniProt P21728)
- Sequence (P21728 whole entry): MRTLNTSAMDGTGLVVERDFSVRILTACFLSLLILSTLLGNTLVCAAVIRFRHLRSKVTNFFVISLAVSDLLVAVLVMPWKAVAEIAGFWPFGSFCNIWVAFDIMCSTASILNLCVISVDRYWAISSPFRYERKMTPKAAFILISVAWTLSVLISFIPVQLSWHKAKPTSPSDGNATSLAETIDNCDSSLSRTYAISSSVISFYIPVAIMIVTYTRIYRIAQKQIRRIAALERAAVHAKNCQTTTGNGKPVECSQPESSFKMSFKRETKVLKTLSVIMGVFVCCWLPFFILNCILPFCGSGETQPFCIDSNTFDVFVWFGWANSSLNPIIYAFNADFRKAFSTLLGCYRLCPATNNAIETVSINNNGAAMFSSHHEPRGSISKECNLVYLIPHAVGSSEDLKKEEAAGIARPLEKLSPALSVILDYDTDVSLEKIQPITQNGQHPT
- measurement_description: In vitro competition binding, [3H]SCH23390, CHO cell membranes
pIC50: −log10 of the molar value.
value_kind: pIC50

Query :: Give measured pIC50 for CCCN1C[C@@H](c2ccc(N)nc2)OC[C@@H]1C (recombinant human D1 receptors (Homo sapiens, UniProt P21728)).
Result :: ≤ 5.00

---

- target: recombinant human D4 receptors (Homo sapiens, UniProt P21917)
- Sequence (P21917 whole entry): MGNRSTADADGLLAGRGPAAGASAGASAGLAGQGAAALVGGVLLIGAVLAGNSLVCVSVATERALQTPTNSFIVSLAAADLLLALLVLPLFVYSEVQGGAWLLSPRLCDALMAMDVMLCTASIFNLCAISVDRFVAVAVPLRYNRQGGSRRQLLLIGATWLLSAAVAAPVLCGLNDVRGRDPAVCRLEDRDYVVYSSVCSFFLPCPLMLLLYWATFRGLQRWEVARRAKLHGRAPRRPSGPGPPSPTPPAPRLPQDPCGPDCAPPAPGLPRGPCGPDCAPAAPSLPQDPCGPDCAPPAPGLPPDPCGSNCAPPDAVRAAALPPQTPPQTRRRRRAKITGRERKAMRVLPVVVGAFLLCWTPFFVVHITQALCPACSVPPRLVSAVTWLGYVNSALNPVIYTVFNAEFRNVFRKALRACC
- measurement_description: Inhibition of forskolin-stimulated cAMP accumulation in intact CHO cells
- measurement_setup: read-out: in vitro Functional Activity EC50, hD4, geometric mean (95%CI)
value_kind: EC50 (nM)
Enter your answer as a number in nM; do not include the unit.

Query :: Give measured EC50 for Br.CCCN(CCC)C1CCc2ccc(O)cc2C1 (racemic) [7-OH-DPAT] (recombinant human D4 receptors (Homo sapiens, UniProt P21917)).
Result :: 45.2

---

- target: recombinant human D5 receptors (Homo sapiens, UniProt P21918)
- Sequence (P21918 whole entry): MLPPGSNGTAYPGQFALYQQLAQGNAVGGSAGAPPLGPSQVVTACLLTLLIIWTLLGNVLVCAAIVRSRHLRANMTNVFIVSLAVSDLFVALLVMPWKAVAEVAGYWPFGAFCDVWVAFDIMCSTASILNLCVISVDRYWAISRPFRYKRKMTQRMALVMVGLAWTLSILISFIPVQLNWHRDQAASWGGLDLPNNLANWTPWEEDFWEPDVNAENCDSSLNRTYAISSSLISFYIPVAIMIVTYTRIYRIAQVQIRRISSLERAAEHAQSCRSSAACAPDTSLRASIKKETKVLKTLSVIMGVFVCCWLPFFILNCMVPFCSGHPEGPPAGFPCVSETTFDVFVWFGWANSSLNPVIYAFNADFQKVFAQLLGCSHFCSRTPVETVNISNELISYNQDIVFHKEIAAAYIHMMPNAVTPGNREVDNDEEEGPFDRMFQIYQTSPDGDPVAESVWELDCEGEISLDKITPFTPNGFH
- measurement_description: In vitro competition binding, [3H]SCH23390, CHO cell membranes
value_kind: IC50

Query :: Give measured IC50 for CCCN1C[C@@H](c2ccc(N)nc2)OC[C@@H]1C [PF-592,379] (recombinant human D5 receptors (Homo sapiens, UniProt P21918)).
Result :: ≥ 10 µM

---

- target: recombinant human D2 receptors (Homo sapiens)
- Sequence (P14416 whole entry): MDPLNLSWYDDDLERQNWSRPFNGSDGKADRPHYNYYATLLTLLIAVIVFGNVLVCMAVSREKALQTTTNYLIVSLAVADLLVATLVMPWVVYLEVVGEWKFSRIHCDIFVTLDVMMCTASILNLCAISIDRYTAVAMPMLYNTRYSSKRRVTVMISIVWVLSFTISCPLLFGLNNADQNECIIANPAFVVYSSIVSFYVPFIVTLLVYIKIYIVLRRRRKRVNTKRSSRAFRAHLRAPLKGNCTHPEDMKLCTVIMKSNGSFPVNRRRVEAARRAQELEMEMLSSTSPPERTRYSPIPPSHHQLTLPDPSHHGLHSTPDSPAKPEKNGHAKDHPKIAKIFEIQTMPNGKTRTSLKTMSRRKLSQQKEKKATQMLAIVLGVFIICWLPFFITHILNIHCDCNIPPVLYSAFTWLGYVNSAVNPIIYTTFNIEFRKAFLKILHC
- measurement_description: In vitro competition binding, [3H]U-86170, CHO cell membranes
pIC50: −log10 of the molar value.
value_kind: pIC50

Query :: Give measured pIC50 for CCCN1C[C@@H](c2ccc(N)nc2)OC[C@@H]1C (recombinant human D2 receptors (Homo sapiens)).
Result :: ≤ 5.00
